Hello, the source for this data is patent US11938122B2, in case you need it.

# study.target: CYP3A4 (Homo sapiens)
# Construct: in incubations with a pool of human liver microsomes; from tissue; host or cells: pooled human liver microsomes
# Sequence (P08684 whole entry): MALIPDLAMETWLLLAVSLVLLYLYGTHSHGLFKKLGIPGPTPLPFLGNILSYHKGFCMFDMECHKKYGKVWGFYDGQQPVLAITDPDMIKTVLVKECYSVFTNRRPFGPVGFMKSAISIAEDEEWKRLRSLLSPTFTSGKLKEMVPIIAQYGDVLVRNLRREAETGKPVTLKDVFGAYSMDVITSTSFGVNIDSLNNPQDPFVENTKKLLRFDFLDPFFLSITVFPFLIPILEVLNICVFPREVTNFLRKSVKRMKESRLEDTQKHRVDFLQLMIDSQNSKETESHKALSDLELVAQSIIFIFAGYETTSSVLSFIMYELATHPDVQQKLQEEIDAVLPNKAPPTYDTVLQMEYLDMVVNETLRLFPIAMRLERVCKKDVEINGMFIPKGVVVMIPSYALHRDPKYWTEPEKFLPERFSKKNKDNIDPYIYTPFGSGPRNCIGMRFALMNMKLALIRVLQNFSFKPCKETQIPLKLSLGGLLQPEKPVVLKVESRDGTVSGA
# test.description: CYP inhibition, cocktail incubation, pooled human liver microsomes
# Format: in vitro ADME
# details: reaction 3-OH-OME

{"molecule": "CC(O)c1ccc(CCOc2ccc(CC3SC(=O)NC3=O)cc2)nc1 (racemic)", "IC50": "> 100 µM"}

###

# study.target: CYP2C19 (Homo sapiens, UniProt P33261)
# Construct: in incubations with a pool of human liver microsomes; from tissue; host or cells: pooled human liver microsomes
# Sequence (P33261 whole entry): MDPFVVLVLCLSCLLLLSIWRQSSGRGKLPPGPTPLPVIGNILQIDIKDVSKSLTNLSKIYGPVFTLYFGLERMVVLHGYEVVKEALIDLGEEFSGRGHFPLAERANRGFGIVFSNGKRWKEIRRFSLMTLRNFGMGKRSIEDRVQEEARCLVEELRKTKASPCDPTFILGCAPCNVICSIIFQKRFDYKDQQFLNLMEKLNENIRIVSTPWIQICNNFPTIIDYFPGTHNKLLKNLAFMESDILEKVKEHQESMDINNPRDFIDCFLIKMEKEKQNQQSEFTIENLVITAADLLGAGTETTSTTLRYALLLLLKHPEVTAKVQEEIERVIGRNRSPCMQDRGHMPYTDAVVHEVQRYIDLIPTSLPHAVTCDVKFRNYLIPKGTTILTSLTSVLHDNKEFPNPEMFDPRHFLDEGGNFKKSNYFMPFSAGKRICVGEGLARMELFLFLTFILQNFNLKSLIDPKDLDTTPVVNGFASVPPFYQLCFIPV
# test.description: CYP inhibition, cocktail incubation, pooled human liver microsomes
# Type: in vitro ADME
# details: reaction dem-OME

{"compound": "CC(O)c1ccc(CCOc2ccc(CC3SC(=O)NC3=O)cc2)nc1 (racemic)", "IC50": "> 100 µM"}
